# TESTED_TARGET: RNA-directed RNA polymerase (Hepacivirus hominis, UniProt O39930)
# Sequence (O39930 whole entry): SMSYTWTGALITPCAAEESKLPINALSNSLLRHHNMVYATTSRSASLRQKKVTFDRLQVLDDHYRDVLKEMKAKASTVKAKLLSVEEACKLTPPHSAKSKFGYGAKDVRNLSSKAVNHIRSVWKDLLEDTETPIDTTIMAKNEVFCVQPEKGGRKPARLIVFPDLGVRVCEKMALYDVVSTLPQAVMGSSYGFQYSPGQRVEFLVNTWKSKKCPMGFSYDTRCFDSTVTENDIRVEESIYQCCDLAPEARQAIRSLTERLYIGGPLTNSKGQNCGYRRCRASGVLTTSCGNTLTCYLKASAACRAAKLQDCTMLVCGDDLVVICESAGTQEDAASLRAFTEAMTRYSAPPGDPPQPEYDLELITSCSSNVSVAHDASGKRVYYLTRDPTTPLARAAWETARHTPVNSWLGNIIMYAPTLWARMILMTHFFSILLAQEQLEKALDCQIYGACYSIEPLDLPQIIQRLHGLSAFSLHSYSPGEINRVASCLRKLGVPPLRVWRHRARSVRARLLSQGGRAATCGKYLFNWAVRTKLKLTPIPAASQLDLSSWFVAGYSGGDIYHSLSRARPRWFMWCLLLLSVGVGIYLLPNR
# EXPERIMENT_NOTES: Inhibition HCV NS5B-mediated RNA synthesis
Task for the reader: assign each of the following molecules its reported IC50.
Field: numeric (µM). Do not append units.

Challenge: Read off the recorded IC50 for C[C@@]1(O)[C@H](O)[C@@H](CO)O[C@H]1n1cnc2c(=O)[nH]cnc21
Response given: 4

Challenge: Read off the recorded IC50 for Nc1nc2c(ncn2[C@@H]2O[C@H](CO)[C@@H](F)[C@H]2O)c(=O)[nH]1
Response given: 1.8

Challenge: Read off the recorded IC50 for C[C@@]1(O)[C@H](O)[C@@H](CO)O[C@H]1n1cnc2c(=O)[nH]c(N)nc21
Response given: 0.13

* * *

# TESTED_TARGET: RNA-directed RNA polymerase (Hepacivirus hominis, UniProt O39930)
# EXPERIMENT_NOTES: Inhibition HCV NS5B-mediated RNA synthesis
# Assay type: functional
Task for the reader: assign each of the following compounds its reported IC50.
Field: numeric (µM). Do not append units.

Challenge: Read off the recorded IC50 for Nc1nc2c(ncn2[C@@H]2O[C@H](CO)C(O)[C@H]2O)c(=O)[nH]1 (single isomer, unassigned)
Response given: 20

Challenge: Read off the recorded IC50 for Nc1ncnc2c1ncn2[C@@H]1O[C@H](CO)C[C@H]1O [CORDYCEPIN]
Response given: 22

Challenge: Read off the recorded IC50 for Nc1ncnc2c1ncn2[C@@H]1O[C@H](CO)[C@@H](O)[C@@H]1O
Response given: 50

Challenge: Read off the recorded IC50 for C[C@@]1(O)[C@H](O)[C@@H](CO)O[C@H]1n1cnc2cnc(N)nc21
Response given: 46

Challenge: Read off the recorded IC50 for Nc1ncnc2c1ncn2[C@@H]1O[C@H](CO)[C@@H](F)[C@H]1O
Response given: 28

Challenge: Read off the recorded IC50 for CO[C@@H]1[C@H](O)[C@@H](CO)O[C@H]1n1cnc2c(N)ncnc21
Response given: 47

Challenge: Read off the recorded IC50 for CO[C@@H]1[C@H](O)[C@@H](CO)O[C@H]1n1cnc2c(=O)[nH]c(N)nc21
Response given: 1.6
